Assay: Cytotoxicity against human HepG2 cells assessed as decrease in cell viability after 72 hrs by CellTiter-Glo reagent based luminescence assay

{"Molecule": "CC(=O)Oc1ccccc1C(=O)Nc1ncc([N+](=O)[O-])s1 [NITAZOXANIDE]", "CC50 at 72 h": "> 40 µM"}
{"Molecule": "COC(=O)[C@H]1O[C@@H]2C[C@H]3O[C@@H](n4cnc5c(N)ncnc54)[C@H](OC)[C@H]3O[C@@]2(O)[C@@H](O)[C@@H]1O", "CC50 at 72 h": "> 40 µM"}
{"Molecule": "C/C=C(\\CO)C(=O)O[C@@H]1[C@@H](C(=O)OC)O[C@@H]2C[C@H]3O[C@@H](n4cnc5c(N)ncnc54)[C@H](OC)[C@H]3O[C@@]2(O)[C@@H]1O", "CC50 at 72 h": "24 µM"}
{"Molecule": "C/C=C(\\CO)C(=O)O[C@H]1[C@H](O)[C@@H](C(=O)OC)O[C@@H]2C[C@H]3O[C@@H](n4cnc5c(N)ncnc54)[C@H](OC)[C@H]3O[C@]21O", "CC50 at 72 h": "> 40 µM"}
{"Molecule": "O=c1[nH]c(=O)n([C@H]2C[C@H](O)[C@@H](CO)O2)cc1F", "CC50 at 72 h": "0.0076 µM"}
{"Molecule": "C/C=C(\\C)C(=O)O[C@H]1[C@H](O)[C@@H](C(=O)OC)O[C@@H]2C[C@H]3O[C@@H](n4cnc5c(N)ncnc54)[C@H](O)[C@H]3O[C@]21O", "CC50 at 72 h": "> 40 µM"}
{"Molecule": "COC(=O)[C@H]1O[C@@H]2C[C@H]3O[C@@H](n4cnc5c(N)ncnc54)[C@H](O)[C@H]3O[C@@]2(O)[C@@H](O)[C@@H]1O", "CC50 at 72 h": "> 40 µM"}
{"Molecule": "COC(=O)[C@H]1O[C@@H]2C[C@H]3O[C@@H](n4cnc5c(N)ncnc54)[C@H](OC)[C@H]3O[C@@]2(O)[C@H](O)[C@@H]1O", "CC50 at 72 h": "> 40 µM"}
{"Molecule": "COc1ccc(C[C@H](N)C(=O)N[C@H]2[C@@H](O)[C@H](n3cnc4c(N(C)C)ncnc43)O[C@@H]2CO)cc1", "CC50 at 72 h": "0.83 µM"}
